molecular target: Tyrosyl-tRNA synthetase, putative (Trypanosoma cruzi (strain CL Brener)) (UniProt Q4DSP6); test: Trypanosoma cruzi tyrosyl tRNA synthetase (TcYRS) SOP; assay type: functional; set-up: scale not given: direction of the effect not stated beside the values; conditions: 30 µM
Sequence (Q4DSP6 as listed by the source): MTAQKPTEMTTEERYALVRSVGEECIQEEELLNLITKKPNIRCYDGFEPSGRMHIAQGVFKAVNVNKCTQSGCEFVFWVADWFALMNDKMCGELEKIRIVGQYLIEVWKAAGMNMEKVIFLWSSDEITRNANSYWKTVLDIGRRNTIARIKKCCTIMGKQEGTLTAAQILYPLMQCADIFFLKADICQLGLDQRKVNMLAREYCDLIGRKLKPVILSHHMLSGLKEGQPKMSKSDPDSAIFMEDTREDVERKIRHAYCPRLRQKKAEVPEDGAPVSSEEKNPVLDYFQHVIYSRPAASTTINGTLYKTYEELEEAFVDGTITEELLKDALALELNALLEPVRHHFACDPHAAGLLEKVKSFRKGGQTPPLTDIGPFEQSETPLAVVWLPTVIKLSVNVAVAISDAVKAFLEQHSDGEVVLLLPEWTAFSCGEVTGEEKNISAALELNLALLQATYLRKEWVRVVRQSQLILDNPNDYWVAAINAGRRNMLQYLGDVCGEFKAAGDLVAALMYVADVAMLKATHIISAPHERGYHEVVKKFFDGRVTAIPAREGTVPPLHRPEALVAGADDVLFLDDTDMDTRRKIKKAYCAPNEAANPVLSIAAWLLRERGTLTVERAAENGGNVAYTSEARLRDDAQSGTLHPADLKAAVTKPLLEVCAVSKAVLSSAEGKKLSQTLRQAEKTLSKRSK
Measurement type: Percent Effect (%)
// units = %; emit number, no label

What does the data say about its Percent Effect? Entry: c1ccc(-c2noc(CNC3CCc4ncnn4C3)n2)nc1 (configuration not stated)
1.22

* * *

Below, each of the compounds is paired with its reported Percent Effect value.
biological target: Sialic acid-binding Ig-like lectin 9 (Homo sapiens); experiment: Hs-Siglec9 ALPHAscreen SOP 20170721; set-up: scale not given: direction of the effect not stated beside the values; conditions: 10 µM
// units = %; emit number, no label

O=C1N(Cc2ccccc2F)CCCC12CCN(C1CCSCC1)C2 (stereo not drawn) | 0.979
Cn1nc(COc2cccnc2)c2c1CCN(c1cnccn1)C2 | 2.04
CS(=O)(=O)NC[C@]12COC[C@H]1CN(CC1CCCC1)C2 | -4.23
Cc1ncc(CN(C)C2CCCN(Cc3noc(C4CC4)n3)C2)s1 (stereo not drawn) | 4.27
CC(c1ccc(Cl)cc1)N1CCN(CCNS(C)(=O)=O)CC1 (stereo not drawn) | 66.6
Cc1nc(C2CCCN2C(=O)c2ccccc2)ncc1C(N)=O (stereo not drawn) | 7.6
O=C(COCc1nc(-c2ccncc2)no1)N1CCCC1 | 6.86
Cc1ncc(CNC(=O)Nc2cc(C(F)(F)F)c[nH]c2=O)s1 | -4.64
CC(OCC(F)(F)F)C(=O)N1CCN(S(C)(=O)=O)CC1 (stereo not drawn) | -5.16
Cc1noc(C)c1C(=O)NCC(c1ccc(F)cc1)N(C)C (stereo not drawn) | -12.4

What does the data say about its Percent Effect? Entry: OCCC1CN(C2CCC2)CCN1C1CCCC1 (stereo not drawn)
-1.98

Try Cc1noc(Cl)c1CCC(=O)N1CCN(c2ncccn2)CC1 next.
-4.66

Try Cc1cc(-c2cnc(NCc3cccnc3)nc2C(C)(C)C)on1 next.
4.38

Try Cc1cc(C)n(CC2CCCN2C(=O)Cc2c(C)noc2C)n1 (stereo not drawn) next.
23.5

Try CC1(C(=O)N2CCOCC2)CN(Cc2ccccc2F)CCO1 (stereo not drawn) next.
4.39

Try Cc1cc(C)n(CC2CCCN2C(=O)CCc2cscn2)n1 (stereo not drawn) next.
-2.27

Try NC(=O)C1CCN(c2nc3nccc(-c4ccccc4)c3c(=O)[nH]2)CC1 next.
3.02

Try COCC(=O)N1CC[C@H]2C[C@@H](c3nnc(C4CC4)o3)O[C@@H]2C1 next.
0.755

* * *

biological target: Tyrosyl-tRNA synthetase, putative (Trypanosoma cruzi (strain CL Brener)) (UniProt Q4DSP6); assay: Trypanosoma cruzi tyrosyl tRNA synthetase (TcYRS) SOP; assay type: functional; design: scale not given: direction of the effect not stated beside the values; details: 30 µM
Below, each of the compounds is paired with its reported Percent Effect value.
// units = %; emit number, no label

What does the data say about its Percent Effect? Entry: Cc1nc(Nc2nccs2)cc(C2CCCN2C2CCOCC2)n1 (stereo unspecified)
14.3

Try CCc1ncc(CNC2CC(=O)N(CCc3cccc(Cl)c3)C2)cn1 (stereo unspecified) next.
11.1

Try CCSCCC(=O)Nc1ncn(CC(=O)NCc2ccccc2)n1 next.
28.4

Try CCN(Cc1ccco1)C(=O)c1cc(OC)c2c(c1)OCCO2 next.
2.6

Try CCc1nnc(CN(C)c2nc(C(C)C)nc3c2cnn3C)o1 next.
2.56

Try COc1ccc(CN2CCc3ncnc(OC(C)C)c3CC2)cc1 next.
0
